# EC50 per entry
# experimental.system: human β3 (Homo sapiens)
# Construct: And then full length of human β3 gene was cloned using this fragment as a probe; expressed in transfected cells; host or cells: CHO cells (Chinese hamster ovary), pcDNA3 vector
# Sequence (P13945 whole entry, the tested form may be a part): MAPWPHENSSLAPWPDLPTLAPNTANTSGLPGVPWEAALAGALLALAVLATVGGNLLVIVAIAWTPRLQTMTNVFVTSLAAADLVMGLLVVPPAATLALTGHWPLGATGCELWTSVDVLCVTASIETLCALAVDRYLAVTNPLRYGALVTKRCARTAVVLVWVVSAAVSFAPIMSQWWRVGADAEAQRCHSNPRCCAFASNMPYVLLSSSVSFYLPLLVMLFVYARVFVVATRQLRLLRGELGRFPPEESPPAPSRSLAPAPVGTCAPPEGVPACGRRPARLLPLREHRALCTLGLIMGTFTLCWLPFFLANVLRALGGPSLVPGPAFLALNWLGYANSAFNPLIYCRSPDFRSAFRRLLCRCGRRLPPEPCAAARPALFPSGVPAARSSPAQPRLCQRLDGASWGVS
# test.method.notes: Human β3-agonist activity (cAMP in CHO cells transfected with human β3 gene)
# Type: cell-based
# condition.notes: cAMP, CHO cells with human β3; read-out: ED50 (the source's name)
Structures can show the parent of a compound that is named as a salt.
The figure you give is taken to be in µM; do not add the unit.

>  <compound>
CS(=O)(=O)Nc1cc(C(O)CNCCOc2ccc3c(c2)[nH]c2ccccc23)ccc1Br (racemic) [Example 85]

>  <experimental.system>
human β3 (Homo sapiens)

>  <value.unit>
µM

>  <recorded.measurement>
0.056

$$$$
>  <compound>
CC(=O)Nc1ccc2c(c1)Cc1cc(OCCNCC(O)c3ccc(O)c(NS(=O)(=O)N(C)C)c3)ccc1-2 (racemic) [Example 45, Hydrochloride]

>  <experimental.system>
human β3 (Homo sapiens)

>  <value.unit>
µM

>  <recorded.measurement>
0.017

$$$$
>  <compound>
CS(=O)(=O)Nc1cccc(C(O)CNCCOc2ccc3c(c2)sc2ccccc23)c1 (racemic) [Example 41, Hydrochloride]

>  <experimental.system>
human β3 (Homo sapiens)

>  <value.unit>
µM

>  <recorded.measurement>
0.6

$$$$

[Q] Notebook entry, human β3 (Homo sapiens) assay: EC50 of OC(CNCCOc1ccc2c(c1)[nH]c1ccccc12)c1ccccc1 (racemic) [Example 31, Hydrochloride] = ?
[A] 2.2

[Q] Notebook entry, human β3 (Homo sapiens) assay: EC50 of CS(=O)(=O)Nc1cc(C(O)CNCCOc2ccc3c(c2)Cc2cc(N)ccc2-3)ccc1O (racemic) [Example 52, Hydrochloride] = ?
[A] 0.0026

[Q] Notebook entry, human β3 (Homo sapiens) assay: EC50 of CNS(=O)(=O)c1cc(C(O)CNCCOc2ccc3c(c2)[nH]c2ccccc23)ccc1O (racemic) [Example 66, Hydrochloride] = ?
[A] 0.072

[Q] Notebook entry, human β3 (Homo sapiens) assay: EC50 of Nc1cccc(C(O)CNCCOc2ccc3c(c2)[nH]c2ccccc23)c1 (racemic) [Example 47, Hydrochloride] = ?
[A] 2

[Q] Notebook entry, human β3 (Homo sapiens) assay: EC50 of CC(=O)Nc1ccc2c(c1)Cc1cc(OCCNCC(O)c3cccc(NS(C)(=O)=O)c3)ccc1-2 (racemic) [Example 10, Hydrochloride] = ?
[A] 0.15
